Value source: patent US20140193400A1

# target of assay: T1, Human TNFa N-his trimers (His-tagged TNF, produced at ESBATech) (human, UniProt P01375 77-233)
# T1 construct: Captured as trimers on a Ni-NTA sensor chip by the N-terminal His tags in the Biacore assay of the general methods; also called human TNFα; human TNF alpha; not shown: N-terminal His tag
# T1 sequence (P01375 77-233 limits assumed): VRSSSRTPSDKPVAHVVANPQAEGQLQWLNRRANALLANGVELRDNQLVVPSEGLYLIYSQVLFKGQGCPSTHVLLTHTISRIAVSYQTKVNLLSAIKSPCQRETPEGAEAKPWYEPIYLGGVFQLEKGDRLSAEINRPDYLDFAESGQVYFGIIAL
# method notes: SPR (BIAcore T100), His-tagged human TNF captured on NTA chip, scFv as analyte
pKd: −log10 of the molar value.
metric: pKd

binder	metric	measured value
EP1_max (scFv, scFv NH2-VL-(GGGGS)4-VH-COOH; also called 1072) scFv: EIVMTQSPSTLSASVGDRVIITCQSTESVYKNNYLAWYQQKPGKAPKLLIYDASTLASGVPSRFSGSGSGTEFTLTISSLQPDDFATYYCAGYYRSGSGTANGSFGQGTKLTVLGGGGGSGGGGSGGGGSGGGGSEVQLVESGGGSVQPGGSLRLSCTVSGIDLSNDAISWVRQAPGKGLEWVAYISDWSIRYYANWAQGRFTISKDTSKNTVYLQMNSLRAEDTATYYCARGAPGAGDNGIWGQGTTVTVSS	pKd	7.24
